Below, each of the molecules is paired with its reported NanoBRET Fold Response value.
# assay_target: LTB4R2 (Homo sapiens, UniProt Q9NPC1)
# Construct: purchased Promega (in-house HiBiT-GPCR construct library, NanoBRET)
# Sequence (Q9NPC1 1-358): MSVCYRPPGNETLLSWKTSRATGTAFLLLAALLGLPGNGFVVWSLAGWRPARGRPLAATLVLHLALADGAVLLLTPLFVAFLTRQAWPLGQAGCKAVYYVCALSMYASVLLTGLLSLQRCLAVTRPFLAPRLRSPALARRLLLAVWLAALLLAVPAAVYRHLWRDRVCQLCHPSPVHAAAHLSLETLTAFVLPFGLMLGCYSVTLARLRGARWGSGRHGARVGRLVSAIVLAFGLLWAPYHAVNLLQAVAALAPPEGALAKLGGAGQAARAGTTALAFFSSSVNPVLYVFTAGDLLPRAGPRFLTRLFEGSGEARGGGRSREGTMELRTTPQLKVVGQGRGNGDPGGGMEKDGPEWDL
# assay_details: NanoBRET screen HiBiT-LTB4R2 in HEK293
# Assay type: binding
# condition_context: LTB4R2; tracer 0.1μM
value_kind: NanoBRET Fold Response

molecule: N#CN=C(NCCCOc1cccc(CN2CCCCC2)c1)NCCNC(=O)CCOCCOCCOCCOCCNC(=O)CCc1ccc2n1[B-](F)(F)[N+]1=C(c3ccc[nH]3)C=CC1=C2 [Aminopotentidine-2-NB590]
value_kind: NanoBRET Fold Response
assay_result: 0.96
//
molecule: O=C(CCc1ccc2n1[B-](F)(F)[N+]1=C(c3ccc[nH]3)C=CC1=C2)NCCOCCOCCNC(=O)OCCOCCN1CCN(C2=Nc3ccccc3Sc3ccccc32)CC1 [Quetiapine-a-2-NB590]
value_kind: NanoBRET Fold Response
assay_result: 1.09
//
molecule: CC(C)N(CC[C@H](c1ccccc1)c1cc(CCNC(=O)c2ccc(CNC(=O)CCc3ccc4n3[B-](F)(F)[N+]3=C(c5ccc[nH]5)C=CC3=C4)cc2)ccc1O)C(C)C [Tolterodine-BZ-NB590]
value_kind: NanoBRET Fold Response
assay_result: 0.91
//
molecule: Cc1cc2c(s1)Nc1ccccc1N=C2N1CCN(CCCNC(=O)CCOCCOCCOCCOCCNC(=O)CCc2ccc3n2[B-](F)(F)[N+]2=C(c4ccc[nH]4)C=CC2=C3)CC1 [Olanzapine-a-2-NB590]
value_kind: NanoBRET Fold Response
assay_result: 0.97
//
molecule: CC(C)N(CC[C@H](c1ccccc1)c1cc(CCNC(=O)CCOCCOCCOCCOCCNC(=O)CCc2ccc3n2[B-](F)(F)[N+]2=C(c4ccc[nH]4)C=CC2=C3)ccc1O)C(C)C [Tolterodine-2-NB590]
value_kind: NanoBRET Fold Response
assay_result: 1.00
//
molecule: CCCn1c(=O)c2[nH]c(-c3ccc(OCC(=O)NCCNC(=O)CCOCCNC(=O)c4ccc(CNC(=O)CCc5ccc6n5[B-](F)(F)[N+]5=C(c7ccc[nH]7)C=CC5=C6)cc4)cc3)nc2n(CCC)c1=O [XAC-3-NB590]
value_kind: NanoBRET Fold Response
assay_result: 0.93
//
molecule: COc1ccccc1N1CCN(CCCCN2C(=O)c3ccc(CNC(=O)CCOCCOCCOCCOCCNC(=O)CCc4ccc5n4[B-](F)(F)[N+]4=C(c6ccc[nH]6)C=CC4=C5)cc3C2=O)CC1 [NAN-190-2-NB590]
value_kind: NanoBRET Fold Response
assay_result: 0.95
//
molecule: O=C(CCOCCOCCOCCOCCNC(=O)CCc1ccc2n1[B-](F)(F)[N+]1=C(c3ccc[nH]3)C=CC1=C2)NCCCN1CCN(C2=Nc3ccccc3Oc3ccc(Cl)cc32)CC1 [Loxapine-a-2-NB590]
value_kind: NanoBRET Fold Response
assay_result: 0.90
//
molecule: Cc1nc2n(c(=O)c1CCN1CCC(c3noc4cc(F)ccc34)CC1)CCCC2OC(=O)NCCOCCOCCOCCOCCNC(=O)CCc1ccc2n1[B-](F)(F)[N+]1=C(c3ccc[nH]3)C=CC1=C2 (centres unmarked) [Risperidone-2-NB590]
value_kind: NanoBRET Fold Response
assay_result: 0.97
//
molecule: COc1ccccc1N1CCN(CCCCN2C(=O)c3ccc(CNC(=O)CCOCCNC(=O)c4ccc(CNC(=O)CCc5ccc6n5[B-](F)(F)[N+]5=C(c7ccc[nH]7)C=CC5=C6)cc4)cc3C2=O)CC1 [NAN-190-3-NB590]
value_kind: NanoBRET Fold Response
assay_result: 0.76
//
molecule: O=C(CCc1ccc2n1[B-](F)(F)[N+]1=C(c3ccc[nH]3)C=CC1=C2)NCc1ccc(C(=O)NCCOCCC(=O)N[C@@H]2CC[C@@]3(O)[C@H]4Cc5ccc(O)c6c5[C@@]3(CCN4CC3CC3)[C@H]2O6)cc1 [Naltrexone-3-NB590]
value_kind: NanoBRET Fold Response
assay_result: 0.89
